- Tested on: Pseudomonas aeruginosa
- protocol-description: Antibacterial activity against Pseudomonas aeruginosa ATCC 27853 by microdilution test
- Type: functional
Entries and their measured MIC90 follow.

H-GLLKKWLKKWKEFKRIVGY-NH2 | 64 µg/mL

Data request: // Input: H-WPKWWKWKRRWGRKKAKKRRG-NH2 . Output its MIC90 only.
Data returned: 64 µg/mL

Data request: // Input: H-RIVQRIKKWLLKWKKLGY-NH2 . Output its MIC90 only.
Data returned: 64 µg/mL

* * *

- Tested on: Pseudomonas aeruginosa
- protocol-description: Antibacterial activity against Pseudomonas aeruginosa M5109 clinical isolate expressing blaVIM and blaGES-1 gene by microdilution test
- Format: functional
property-name: MIC90

H-GLLKKWLKKWKEFKRIVGY-NH2 | 64 µg/mL
H-WPKWWKWKRRWGRKKAKKRRG-NH2 | 128 µg/mL

Data request: // Input: H-RIVQRIKKWLLKWKKLGY-NH2 . Output its MIC90 only.
Data returned: 64 µg/mL

* * *

Entries and their measured MIC90 follow.
- Test system: Enterococcus faecalis
- protocol-description: Antibacterial activity against Enterococcus faecalis ATCC 51299 clinical isolate expressing vanB gene by microdilution test
- Type: functional

Recorded MIC90, per entry:
H-RIVQRIKKWLLKWKKLGY-NH2 | 256 µg/mL
H-GLLKKWLKKWKEFKRIVGY-NH2 | 256 µg/mL

Attention now turns to another entry.
Data request: // Input: H-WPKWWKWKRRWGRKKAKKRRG-NH2 . Output its MIC90 only.
Data returned: 256 µg/mL

* * *

Entries and their measured MIC90 follow.
- Test system: Pseudomonas aeruginosa
- protocol-description: Antibacterial activity against Pseudomonas aeruginosa M5200 clinical isolate expressing blaVIM and blaGES-1 gene by microdilution test
- Format: functional

Recorded MIC90, per entry:
H-RIVQRIKKWLLKWKKLGY-NH2 | 64 µg/mL
H-GLLKKWLKKWKEFKRIVGY-NH2 | 64 µg/mL

Data request: // Input: H-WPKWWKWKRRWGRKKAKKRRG-NH2 . Output its MIC90 only.
Data returned: 64 µg/mL
